# System: COR L88 complex tumor spheroid viability
# assay.name: Anticancer human tumor COR L88 cell line growth inhibition;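 note: compound exposure lasted 7 days before viability readout; percent of DMSO vehicle-treated spheroids = 100%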
# conditions: second compound 100 µM; first compound 0.0316 µM; active compounds read low
# Description: Multicellular complex tumor spheroid response to DNA repair inhibitors in combination with DNA-damaging drugs This study explores the anticancer activities of DNA-damaging drugs and inhibitors of DNA damage repair, both as single agents and in combinations. […] Twenty-six patient-derived or established malignant cell lines were evaluated representing sarcoma, melanoma, small cell lung cancer (SCLC), non-small cell lung cancer (NSCLC), as well as bladder, ovarian and pancreatic cancers. […]
reported.property: viability, T/C (%)
Report the figure in % without appending any unit label.

Prompt line: Which viability, T/C reading was recorded for the molecule COc1ccc([C@@H](O)c2cc(-c3ncnc4cc(N5CCOCC5)ccc34)c(F)cc2Cl)nn1 + Cn1nnc2c(C(N)=O)ncn2c1=O ?
Response line: 69.9

Prompt line: Which viability, T/C reading was recorded for the molecule Cc1cc(C)c(CNC(=O)c2cc(-c3ccc(CN4CCOCC4)cc3)cc3c2cnn3C2CCCC2)c(=O)[nH]1 + Cn1nnc2c(C(N)=O)ncn2c1=O ?
Response line: 68.7

Prompt line: Which viability, T/C reading was recorded for the molecule CC(C)n1c(=O)n(C)c2cnc3cc(F)c(-c4ccc(OCCCN5CCCCC5)nc4)cc3c21 + Cn1nnc2c(C(N)=O)ncn2c1=O ?
Response line: 72.5

Prompt line: Which viability, T/C reading was recorded for the molecule [2H]c1nc(C)nc([2H])c1-c1cc(NC[C@@H](C)c2cccc3c(C(=O)NC)ccnc23)ncn1 + Cn1nnc2c(C(N)=O)ncn2c1=O ?
Response line: 66

Prompt line: Which viability, T/C reading was recorded for the molecule COc1cc(C)[nH]c(=O)c1CN1CCc2c(Cl)cc(C(OC)C3COC3)c(Cl)c2C1=O (stereo unspecified) + Cn1nnc2c(C(N)=O)ncn2c1=O ?
Response line: 49

Prompt line: Which viability, T/C reading was recorded for the molecule CC1COCCN1c1cc(-c2ccnn2C)c2ccnc(-c3ccn[nH]3)c2n1 (stereo unspecified) + Cn1nnc2c(C(N)=O)ncn2c1=O ?
Response line: 34.3

---

# System: COR L88 complex tumor spheroid viability
# assay.name: Anticancer human tumor COR L88 cell line growth inhibition;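 note: compound exposure lasted 7 days before viability readout; percent of DMSO vehicle-treated spheroids = 100%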
# conditions: second compound 3.16 µM; first compound 3 µM; active compounds read low
reported.property: viability, T/C (%)
Report the figure in % without appending any unit label.

Prompt line: Which viability, T/C reading was recorded for the molecule O=C(c1cc(Cc2n[nH]c(=O)c3ccccc23)ccc1F)N1CCN(C(=O)C2CC2)CC1 + Cn1nnc2c(C(N)=O)ncn2c1=O ?
Response line: 86.5

Prompt line: Which viability, T/C reading was recorded for the molecule Cn1ncnc1[C@H]1c2n[nH]c(=O)c3cc(F)cc(c23)N[C@@H]1c1ccc(F)cc1 + Cn1nnc2c(C(N)=O)ncn2c1=O ?
Response line: 39.1

Prompt line: Which viability, T/C reading was recorded for the molecule Cc1sc2c(c1C)C(c1ccc(Cl)cc1)=NC(CC(=O)Nc1ccc(O)cc1)c1nnc(C)n1-2 (centres undefined) + Cn1nnc2c(C(N)=O)ncn2c1=O ?
Response line: 21.5

Prompt line: Which viability, T/C reading was recorded for the molecule CNCc1ccc(-c2cc(-c3nc(-c4ccc(S(=O)(=O)C(C)C)cc4)cnc3N)on2)cc1 + Cn1nnc2c(C(N)=O)ncn2c1=O ?
Response line: 11

---

# System: COR L88 complex tumor spheroid viability
# assay.name: Anticancer human tumor COR L88 cell line growth inhibition;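 note: compound exposure lasted 7 days before viability readout; percent of DMSO vehicle-treated spheroids = 100%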
# conditions: second compound 0.003 µM; first compound 0.316 µM; active compounds read low
# Description: Multicellular complex tumor spheroid response to DNA repair inhibitors in combination with DNA-damaging drugs This study explores the anticancer activities of DNA-damaging drugs and inhibitors of DNA damage repair, both as single agents and in combinations. […] Twenty-six patient-derived or established malignant cell lines were evaluated representing sarcoma, melanoma, small cell lung cancer (SCLC), non-small cell lung cancer (NSCLC), as well as bladder, ovarian and pancreatic cancers. […]
Record form. Attribute: viability, T/C. Fill in for each entry.
Report the figure in % without appending any unit label.

Prompt line: Which viability, T/C reading was recorded for the compound Cc1cc(C)c(CNC(=O)c2cc(-c3ccc(CN4CCOCC4)cc3)cc3c2cnn3C2CCCC2)c(=O)[nH]1 + COc1cc2c(cc1O)CCNC21CSC2c3c(OC(C)=O)c(C)c4c(c3C(COC1=O)N1C(O)C3Cc5cc(C)c(OC)c(O)c5C(C21)N3C)OCO4 ?
Response line: 0.94

Prompt line: Which viability, T/C reading was recorded for the compound COc1cc(C)[nH]c(=O)c1CN1CCc2c(Cl)cc(C(OC)C3COC3)c(Cl)c2C1=O (stereo not given) + CC[C@@]1(O)C(=O)OCc2c1cc1n(c2=O)Cc2cc3c(CN(C)C)c(O)ccc3nc2-1 ?
Response line: 83.5

Prompt line: Which viability, T/C reading was recorded for the compound CC(C)n1c(=O)n(C)c2cnc3cc(F)c(-c4ccc(OCCCN5CCCCC5)nc4)cc3c21 + CC[C@@]1(O)C(=O)OCc2c1cc1n(c2=O)Cc2cc3c(CN(C)C)c(O)ccc3nc2-1 ?
Response line: 76.9

Prompt line: Which viability, T/C reading was recorded for the compound COc1cc(C)[nH]c(=O)c1CN1CCc2c(Cl)cc(C(OC)C3COC3)c(Cl)c2C1=O (stereo not given) + COc1cc2c(cc1O)CCNC21CSC2c3c(OC(C)=O)c(C)c4c(c3C(COC1=O)N1C(O)C3Cc5cc(C)c(OC)c(O)c5C(C21)N3C)OCO4 ?
Response line: 0.9

Prompt line: Which viability, T/C reading was recorded for the compound CC1COCCN1c1cc(-c2ccnn2C)c2ccnc(-c3ccn[nH]3)c2n1 (stereo not given) + CC[C@@]1(O)C(=O)OCc2c1cc1n(c2=O)Cc2cc3c(CN(C)C)c(O)ccc3nc2-1 ?
Response line: 41.7
